Attribution: patent US12263155B2

protocol.details: Phase I 14-day twice-daily pharmacokinetics
measurement.setup: human, plasma, oral, 40 mg, AUC0-12h, healthy volunteers, 40 mg twice daily, Day 14, mean, N = 4
test.readout: AUC(0-t) (ng·h/mL)

{"columns": ["substance.smiles", "observed"],
 "data": [
  ["O=S1(=O)c2ccc(F)cc2Oc2cc(OCC(F)(F)F)ccc21", 355]
]}

====

system.under.test: MAO-A from human brain striatum (Homo sapiens)
Sequence (P21397 whole entry): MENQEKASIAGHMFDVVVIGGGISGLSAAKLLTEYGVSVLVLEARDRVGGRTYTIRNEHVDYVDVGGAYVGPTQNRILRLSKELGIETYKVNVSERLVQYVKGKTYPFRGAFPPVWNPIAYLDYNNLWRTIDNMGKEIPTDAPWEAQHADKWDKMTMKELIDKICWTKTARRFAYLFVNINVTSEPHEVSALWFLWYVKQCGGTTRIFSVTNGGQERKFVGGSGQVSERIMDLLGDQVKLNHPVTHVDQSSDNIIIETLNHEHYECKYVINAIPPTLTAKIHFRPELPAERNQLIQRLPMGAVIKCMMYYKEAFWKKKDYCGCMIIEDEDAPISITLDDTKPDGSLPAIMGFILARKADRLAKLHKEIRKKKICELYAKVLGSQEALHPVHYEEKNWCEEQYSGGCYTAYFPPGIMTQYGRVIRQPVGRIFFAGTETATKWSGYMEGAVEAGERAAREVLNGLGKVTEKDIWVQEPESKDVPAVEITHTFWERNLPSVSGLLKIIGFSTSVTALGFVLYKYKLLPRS
pKi: −log10 of the molar value.

{"columns": ["substance.smiles", "pKi"],
 "data": [
  ["O=S1(=O)c2ccc(F)cc2Oc2cc(OCC(F)(F)F)ccc21", 8.00]
]}
